Source: paper PMC9804084

protocol: In vivo microdialysis pharmacokinetics of LVFX without transporter inhibitors
Parameters: species or system rat
applied_conditions: rat, brain ECF, iv, 50 mg/kg, pH 9, brain ECF; Group 3: physiological saline alkalinized with NaOH (pH 9.0–9.2) + LVFX 50 mg/kg; mean ± SD, n=3
measured_metric: AUC(0-inf) (ng·h/mL)
Unit ng·h/mL implied. Number only.

Prompt: Reported AUC(0-inf) for C[C@H]1COc2c(N3CCN(C)CC3)c(F)cc3c(=O)c(C(=O)O)cn1c23 : what is it?
Completion: 3820

====

protocol: In vivo microdialysis pharmacokinetics of LVFX without transporter inhibitors
Parameters: species or system rat
applied_conditions: rat, blood, iv, 50 mg/kg, blood; control group, vehicle + LVFX 50 mg/kg tail vein; mean ± SD, N=12
measured_metric: half-life (min)
Unit min implied. Number only.

Prompt: Reported half-life for C[C@H]1COc2c(N3CCN(C)CC3)c(F)cc3c(=O)c(C(=O)O)cn1c23 : what is it?
Completion: 49.2
